# testSystem: Ataxin-2 (Homo sapiens) (UniProt Q99700)
# Sequence (Q99700 whole entry): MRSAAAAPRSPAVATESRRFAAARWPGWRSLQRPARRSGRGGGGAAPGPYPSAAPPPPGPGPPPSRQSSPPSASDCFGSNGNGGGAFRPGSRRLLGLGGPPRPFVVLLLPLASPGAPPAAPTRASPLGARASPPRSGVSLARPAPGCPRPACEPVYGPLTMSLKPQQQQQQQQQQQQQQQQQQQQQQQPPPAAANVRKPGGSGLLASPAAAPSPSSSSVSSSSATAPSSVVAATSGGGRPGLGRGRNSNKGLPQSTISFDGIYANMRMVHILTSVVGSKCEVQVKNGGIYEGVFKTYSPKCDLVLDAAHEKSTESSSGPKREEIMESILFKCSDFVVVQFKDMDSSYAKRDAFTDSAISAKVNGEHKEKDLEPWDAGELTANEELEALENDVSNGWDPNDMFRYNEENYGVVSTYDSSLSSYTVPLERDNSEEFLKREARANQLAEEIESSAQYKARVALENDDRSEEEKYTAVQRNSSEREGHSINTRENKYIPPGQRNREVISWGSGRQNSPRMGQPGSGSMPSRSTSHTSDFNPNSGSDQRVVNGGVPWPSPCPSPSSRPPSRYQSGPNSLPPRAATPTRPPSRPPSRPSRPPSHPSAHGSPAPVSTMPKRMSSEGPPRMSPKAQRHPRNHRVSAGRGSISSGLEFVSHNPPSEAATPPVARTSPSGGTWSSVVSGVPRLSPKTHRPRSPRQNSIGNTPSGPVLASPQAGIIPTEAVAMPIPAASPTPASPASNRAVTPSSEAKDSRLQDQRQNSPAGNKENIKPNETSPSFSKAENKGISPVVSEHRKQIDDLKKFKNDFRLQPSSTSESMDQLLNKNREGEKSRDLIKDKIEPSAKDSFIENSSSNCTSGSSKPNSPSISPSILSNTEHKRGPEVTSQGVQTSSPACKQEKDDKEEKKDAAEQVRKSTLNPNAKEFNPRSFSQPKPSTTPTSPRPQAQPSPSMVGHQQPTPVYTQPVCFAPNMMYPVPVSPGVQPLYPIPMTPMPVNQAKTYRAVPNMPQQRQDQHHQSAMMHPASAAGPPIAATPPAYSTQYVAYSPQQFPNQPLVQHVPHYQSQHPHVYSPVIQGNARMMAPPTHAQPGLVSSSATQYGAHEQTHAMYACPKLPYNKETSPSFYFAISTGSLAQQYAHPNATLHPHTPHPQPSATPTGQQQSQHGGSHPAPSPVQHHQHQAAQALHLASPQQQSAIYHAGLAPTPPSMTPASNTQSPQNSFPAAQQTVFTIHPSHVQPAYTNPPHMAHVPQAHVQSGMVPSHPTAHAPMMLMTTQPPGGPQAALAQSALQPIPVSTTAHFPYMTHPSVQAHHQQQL
# assayMethodText: qHTS for Inhibitors of ATXN expression.
# Assay type: functional
The campaign covered roughly 400,000 compounds. About 2,100 (0.53%) were called active. Another 14% or so got no clear call; they are omitted. How the calls were made is not given here. This excerpt belongs to a sample that is enriched for actives.
Outcome codes: T for active, F for inactive

>  <molecule>
O=C(N/N=C/c1c(O)ccc2ccccc12)c1[nH]ncc1Br

>  <discreteLabel>
F

$$$$
>  <molecule>
Cc1cc(/C=N/NC(=O)Cn2c3ccccc3c(=O)c3ccccc32)c(C)n1-c1ccc(Cl)cc1

>  <discreteLabel>
F

$$$$
>  <molecule>
CC(=O)O/N=C/c1c(NCc2ccccc2)nc2c(C)cccn2c1=O

>  <discreteLabel>
F

$$$$
>  <molecule>
O=C(c1cnn(-c2ccccc2)c1)c1ccccc1O

>  <discreteLabel>
F

$$$$
>  <molecule>
Nc1ccc2c(c1)nc(O)c1cc(N)ccc12

>  <discreteLabel>
F

$$$$
>  <molecule>
Cc1ccc(NC(=O)Cn2ncc(Cl)c(Cl)c2=O)cc1S(=O)(=O)N1CCCCC1

>  <discreteLabel>
T

$$$$
>  <molecule>
CCn1c2ccccc2c2cc(CNCc3ccc(OC)cc3OC)ccc21

>  <discreteLabel>
T

$$$$
>  <molecule>
CCC(=O)N(CC)C1=C(O)C(=O)c2ccccc2C1=O

>  <discreteLabel>
F

$$$$
>  <molecule>
CCCn1nc(NC(=O)c2ccco2)c2cc3ccccc3nc21

>  <discreteLabel>
F

$$$$
>  <molecule>
C=CCN=C(S)Nc1ccc(C)c(S(=O)(=O)N2CCCCC2)c1

>  <discreteLabel>
F

$$$$
>  <molecule>
O=C(Cn1c(C(F)(F)F)nc2ccccc21)Nc1ccccc1C(=O)O

>  <discreteLabel>
F

$$$$
>  <molecule>
O=C(Cn1c(SCC(=O)Nc2ccc(F)cc2)nc2ccccc21)NCc1ccccc1Cl

>  <discreteLabel>
T

$$$$
>  <molecule>
CCC(=O)c1cc2c(C)cc(=O)oc2c(C)c1O

>  <discreteLabel>
F

$$$$
>  <molecule>
Nc1ccc2c(C(F)(F)F)cc(=O)oc2c1

>  <discreteLabel>
F

$$$$
>  <molecule>
CC1=CC(=Cc2sc3ccccc3[n+]2C)C=C(C)N1CC1CCCO1 (stereo not drawn)

>  <discreteLabel>
F

$$$$
>  <molecule>
Cc1ccc(C(=O)OCC(=O)Nc2nc(-c3ccccc3)cs2)cc1NC(=O)c1ccco1

>  <discreteLabel>
F

$$$$
>  <molecule>
COc1ccc(CNc2nc3ccccc3n2C)c(OC)c1

>  <discreteLabel>
F

$$$$
>  <molecule>
O=C(N/C(=C/c1cccc(Br)c1)C(=O)N1CCOCC1)c1ccco1

>  <discreteLabel>
F

$$$$
>  <molecule>
CCc1cc(=O)oc2c(CNCc3ccc(OC)cc3OC)c(O)c(Cl)cc12

>  <discreteLabel>
F

$$$$
>  <molecule>
O=C1c2cccc3cccc(c23)C(=O)C1(O)O

>  <discreteLabel>
T

$$$$
>  <molecule>
CC1(S(=O)(=O)O)CC(=O)c2ccccc2C1=O (stereo not drawn)

>  <discreteLabel>
F

$$$$
>  <molecule>
Cc1c(Cc2ccccc2)c(=O)oc2c(C)c(OCC(=O)Nc3ccc(C#N)cc3)ccc12

>  <discreteLabel>
F

$$$$
>  <molecule>
O=C(NCc1ccc2c(c1)OCO2)c1nc(Cn2ccc([N+](=O)[O-])n2)no1

>  <discreteLabel>
F

$$$$
